Biological target: M4 muscarinic receptor (Homo sapiens)
Construct: expressed in transfected cells; host or cells: CHO (M4-CHO)
Sequence (P08173 1-479): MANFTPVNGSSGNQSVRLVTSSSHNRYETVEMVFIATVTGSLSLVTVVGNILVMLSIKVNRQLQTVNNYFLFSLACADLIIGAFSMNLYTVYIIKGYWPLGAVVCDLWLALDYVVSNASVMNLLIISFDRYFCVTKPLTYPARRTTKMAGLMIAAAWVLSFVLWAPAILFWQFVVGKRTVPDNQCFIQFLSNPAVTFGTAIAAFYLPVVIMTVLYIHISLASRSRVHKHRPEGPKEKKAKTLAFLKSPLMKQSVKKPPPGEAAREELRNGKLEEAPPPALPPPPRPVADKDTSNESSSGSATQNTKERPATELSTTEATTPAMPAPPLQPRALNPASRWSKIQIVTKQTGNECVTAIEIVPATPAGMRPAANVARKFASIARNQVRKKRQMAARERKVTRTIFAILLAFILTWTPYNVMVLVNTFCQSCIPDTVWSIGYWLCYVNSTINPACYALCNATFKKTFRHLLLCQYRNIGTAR
Assay: Functional mobilization of intracellular calcium (FLIPR) in M4-CHO cells
Assay type: cell-based
Conditions: 100% efficacy is the maximum response obtained with the Carbachol control; Table 5
ASSAY METRIC: Emax

Output measured Emax for this item: CN(C)C(=O)N1CC2(CCN(C[C@@H]3CCN(c4cnccn4)C3)CC2)c2cc(F)ccc21 [compound 1036] 25 to 100%

Output measured Emax for this item: CN(C)C(=O)N1CC2(CCN(C3CCN(c4ccc(F)cc4)CC3)CC2)c2cc(F)ccc21 [compound 1026] < 25%

Output measured Emax for this item: CN(C)C(=O)N1CC2(CCN(C3CCN(c4cccc(F)c4)CC3)CC2)c2cc(F)ccc21 [compound 1025] 25 to 100%

Output measured Emax for this item: COc1ccccc1N1CCC(N2CCC3(CC2)CN(C(=O)N(C)C)c2ccc(F)cc23)CC1 [compound 1027] 25 to 100%
